Biological target: UniProt P38532
Sequence (P38532 whole entry): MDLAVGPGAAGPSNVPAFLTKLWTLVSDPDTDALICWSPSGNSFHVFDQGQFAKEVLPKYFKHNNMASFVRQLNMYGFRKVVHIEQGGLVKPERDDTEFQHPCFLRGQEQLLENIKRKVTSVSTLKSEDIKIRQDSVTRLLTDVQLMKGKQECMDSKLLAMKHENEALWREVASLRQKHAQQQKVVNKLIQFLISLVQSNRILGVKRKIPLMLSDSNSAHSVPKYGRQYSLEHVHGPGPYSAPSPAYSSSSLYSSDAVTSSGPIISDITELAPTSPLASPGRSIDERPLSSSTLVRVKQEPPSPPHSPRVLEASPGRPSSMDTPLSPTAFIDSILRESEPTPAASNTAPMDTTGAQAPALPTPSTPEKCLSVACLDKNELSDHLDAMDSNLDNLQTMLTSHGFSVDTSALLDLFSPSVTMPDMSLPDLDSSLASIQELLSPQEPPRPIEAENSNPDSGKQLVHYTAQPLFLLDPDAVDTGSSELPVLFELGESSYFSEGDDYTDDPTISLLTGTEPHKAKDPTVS
Test: inhibition of MG132-induced HSE-luciferase signal, confirmation, cell-based, NIH3T3, luminescence, dose retest (AID 2382);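 further: NIH3T3 fibroblasts with HSF1-driven luciferase reporter stressed by proteasome inhibitor MG132; luminescence from HSF1-driven luciferase expression after 8 hours of MG132 stress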
Type: functional
Active and inactive are the calls of the source. No stated cut-off is given here; in the data, actives have a measured EC50 and inactives only a lower limit.
readout type: EC50

Here are 5 molecules together with their reported answers.
O=C(Nc1cccc(Cl)c1)N1CCOCC1 = > 195 µM (not active)
CCC(C)(NC(=O)c1ccccn1)C(=O)NC1CCCCC1 (stereo not given) = > 195 µM (not active)
c1cc(CNc2ccc3c(c2)OCCO3)ccn1 = 6.77 µM (active)
COc1ccc(-n2cccc2/C=C2/NC(=O)N(c3cccc(Cl)c3)C2=O)cc1 = 30.2 µM (active)
CN(C)c1ccc(/C=N/NC(=O)c2cccc(N3CCCC3=O)c2)cc1 = > 195 µM (not active)

Now for another entry.
Q. Which EC50 reading was recorded for the molecule "C(=N\Nc1nc2ccccc2s1)/c1ccccn1" ?
A. < 0.16 µM (active)

----------
Molecular target: Luciferin 4-monooxygenase (Photinus pyralis)
Sequence (P08659 whole entry): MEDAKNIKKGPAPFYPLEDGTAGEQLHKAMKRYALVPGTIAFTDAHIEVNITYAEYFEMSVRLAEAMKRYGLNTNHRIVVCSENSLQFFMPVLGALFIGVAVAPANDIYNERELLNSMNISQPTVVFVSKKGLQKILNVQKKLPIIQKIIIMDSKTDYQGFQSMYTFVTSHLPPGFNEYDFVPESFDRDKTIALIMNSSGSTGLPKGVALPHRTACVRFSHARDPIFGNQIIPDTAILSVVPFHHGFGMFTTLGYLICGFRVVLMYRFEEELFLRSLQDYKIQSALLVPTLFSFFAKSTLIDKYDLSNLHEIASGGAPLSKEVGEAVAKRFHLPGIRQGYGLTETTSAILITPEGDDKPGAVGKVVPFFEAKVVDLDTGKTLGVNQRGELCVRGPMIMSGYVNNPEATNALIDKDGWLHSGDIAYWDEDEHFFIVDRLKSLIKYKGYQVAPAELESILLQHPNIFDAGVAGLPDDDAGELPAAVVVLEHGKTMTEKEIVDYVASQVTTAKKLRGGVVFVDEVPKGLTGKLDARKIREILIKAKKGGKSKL
Assay: firefly luciferase enzyme inhibitors, dose response, biochemical, luminescence (AID 1891)
The source made the active and inactive calls. No stated cut-off is given here; in the data, actives have a measured EC50 and inactives only a lower limit.
Each entry below lists one item and its recorded EC50 value.

N=C(NOC(=O)c1ccc(Cl)cc1)c1ccccn1 = 1.53 µM (active)
CCc1cccc(NC2c3ccccc3C(=O)N2c2cccnc2)c1 (centres undefined) = > 112 µM (not active)
Nc1cccc(-c2nc3ccc(N)cc3s2)c1 = 2.3 µM (active)
COc1ccc(/C=N/Nc2cc(OC)ncn2)cc1 = 6.11 µM (active)
Cc1cnc(C)c(N2CCN(Cc3nc(-c4ccccc4)no3)CC2)n1 = > 112 µM (not active)

Q. Tell me the measured EC50 of "O=C(N1CCN(Cc2ccccc2)CC1)C12CC3CC(CC(C3)C1)C2" , please.
A. > 112 µM (not active)

Q. Record: "CN(C(=O)c1cc(S(=O)(=O)N2CCc3ccccc32)cn1C)C1CCCCC1"
A. > 112 µM (not active)

Q. Lookup CC1CCCC(C)N1C(=O)COC(=O)CNC(=O)c1sc2ccccc2c1Cl (centres undefined)
A. > 112 µM (not active)

Q. Similarly, O=C(O)C1C2CCC(C2)C1C(=O)Nc1ccccc1 (centres undefined) ?
A. > 112 µM (not active)

Q. Moving on to "Nc1ccc(-c2nc3ccc(N)cc3o2)cc1"
A. 20.1 µM (active)

Q. Moving on to the next compound: "O=C(c1ccco1)c1cn(CC(=O)N2CCCc3ccccc32)c2ccccc12"
A. > 112 µM (not active)

Q. # iterate: "O=C(Nc1ncc([N+](=O)[O-])s1)c1ccc2c(c1)OCO2"
A. 0.324 µM (active)

Q. For "CCOC(=O)COc1cccc2c(=O)n(CC(=O)N3CCN(C(=O)OCC)CC3)ccc12" then?
A. > 112 µM (not active)

Q. Also need "O=C(CN(Cc1ccccc1Cl)C(=O)c1ccc(CN2CCOCC2)o1)NCc1ccccc1" , thanks.
A. > 112 µM (not active)

----------
Test: inhibitors of SNCA 5'UTR-driven reporter translation, confirmation, H4 neuroglioma cells, luminescence (AID 1988)
Format: functional, cell-based
The source made the active and inactive calls. Cut-off read from the data, not from the text of the source: actives have a measured EC50 and inactives only a lower limit.
Reported EC50 values are given for each entry in this list.

Record excerpt, results attached:
CCOC(=O)C1=C(CN2CCN(C(=O)c3ccco3)CC2)NC(=O)NC1c1ccccc1 (stereo unspecified) = > 120 µM (not active)
Cc1cc(C)n(-c2nc3ccccc3c(=O)n2OCC(=O)OCc2ccccc2)n1 = > 120 µM (not active)
COc1ccc(-c2nc(CN3CCN(c4cc(C)nc(C)c4)CC3)c(C)o2)c2ccccc12 = 10.7 µM (active)

Q. Query (molecule): "Clc1ccc(CSc2nncn2-c2ccc3c(c2)OCCO3)cc1" ; field requested: EC50
A. > 120 µM (not active)

Q. Now give it for "Cc1ccc(CN=C(N)Nc2nc(C)cc(C)n2)cc1" too.
A. 7.78 µM (active)

Q. Another molecule to check: "O=C(NCc1ccco1)c1ccc(Cn2c(=O)c3ccccc3n(Cc3cccc(F)c3)c2=O)cc1"
A. 41.4 µM (active)
